Ki for Carbonic anhydrase 9 (Homo sapiens, UniProt Q16790), merged from several publications.
Ki less than 60 nM is Yes; Ki greater than or equal to 60 nM is No.

compound | system | assignedLabel
Nc1c(F)cc(S(=O)(=O)Nc2nnc(S(N)(=O)=O)s2)cc1I | Carbonic anhydrase 9 (Homo sapiens, UniProt Q16790) | Yes
CCCN(CCC)S(=O)(=O)c1ccc(C(=O)Nc2ccncc2)cc1 | Carbonic anhydrase 9 (Homo sapiens, UniProt Q16790) | No
Cc1cccc(-n2c(-c3ccc(S(=O)(=O)c4ccc(Br)cc4)cc3)n[nH]c2=S)c1 | Carbonic anhydrase 9 (Homo sapiens, UniProt Q16790) | No
NS(=O)(=O)c1ccc(C(=O)NNC(=O)Nc2ccc(C34CC5CC(CC(C5)C3)C4)cc2)cc1 | Carbonic anhydrase 9 (Homo sapiens, UniProt Q16790) | Yes
NS(=O)(=O)c1ccc2c(c1)C(=O)C(=O)N2Cc1ccc(F)cc1 | Carbonic anhydrase 9 (Homo sapiens, UniProt Q16790) | No
Oc1ccccc1CNCCNCc1ccccc1O | Carbonic anhydrase 9 (Homo sapiens, UniProt Q16790) | No
NS(=O)(=O)c1ccc(-n2cc(CN(Cc3cn(-c4ccc(S(N)(=O)=O)cc4)nn3)c3ccccc3)nn2)cc1 | Carbonic anhydrase 9 (Homo sapiens, UniProt Q16790) | Yes
NS(=O)(=O)c1nnc(NC(=O)CN2CCN(Cc3ccccc3)CC2)s1 | Carbonic anhydrase 9 (Homo sapiens, UniProt Q16790) | No
COc1ccc2c(c1)CCN(S(N)(=O)=O)C2c1cccc(N)c1 (racemic) | Carbonic anhydrase 9 (Homo sapiens, UniProt Q16790) | Yes
O=C(O)/C(O)=C/C(=O)c1cccn1Cc1ccc(F)cc1 | Carbonic anhydrase 9 (Homo sapiens, UniProt Q16790) | No
Nc1nc(-c2ccc(NC(=O)CCNCCc3ccc(S(N)(=O)=O)cc3)cc2)cn2c(=O)n(-c3ccccc3)nc12 | Carbonic anhydrase 9 (Homo sapiens, UniProt Q16790) | No
NS(=O)(=O)c1ccc(-c2nnc3n2N=C(c2ccc(Cl)cc2)CS3)cc1 | Carbonic anhydrase 9 (Homo sapiens, UniProt Q16790) | No
O=C(N/N=C/c1ccc(F)cc1)Nc1n[nH]c(=S)s1 | Carbonic anhydrase 9 (Homo sapiens, UniProt Q16790) | No
C#CCCOS(N)(=O)=O | Carbonic anhydrase 9 (Homo sapiens, UniProt Q16790) | No
NS(=O)(=O)c1cnccc1Sc1nc2ccc([N+](=O)[O-])cc2s1 | Carbonic anhydrase 9 (Homo sapiens, UniProt Q16790) | Yes
CCn1cc(S(N)(=O)=O)c2cc(NC(=O)c3cc(-c4ccccc4OC)nc4ccc(OC)cc34)ccc21 | Carbonic anhydrase 9 (Homo sapiens, UniProt Q16790) | No
N/C(=N\S(=O)(=O)c1ccccc1SCc1cccc(C(F)(F)F)c1)NNc1nc(Cl)nc(NCc2ccc(S(N)(=O)=O)cc2)n1 | Carbonic anhydrase 9 (Homo sapiens, UniProt Q16790) | Yes
CC(=O)N1N=C(c2ccc(OS(N)(=O)=O)cc2)CC1c1ccc(Cl)cc1 (stereo not given) | Carbonic anhydrase 9 (Homo sapiens, UniProt Q16790) | Yes
